# Test system: NCI-H358 human non-small cell lung cancer
# measurementDescription: NCI-H358 CCK-8 proliferation assay
# Assay type: cell-based
# conditionLabel: NCI-H358 cells, 72 hr
metricName: EC50

[
  {
    "structure": "CCC(=O)N1CCN(c2nc(NCCC(=O)NCCc3ccc(-n4c(O)nnc4-c4cc(C(C)C)c(O)cc4O)cc3)nc3c2CCN(c2cc(O)cc4ccccc24)C3)CC1",
    "testTarget": "NCI-H358 human non-small cell lung cancer",
    "val": "> 1000 nM"
  },
  {
    "structure": "CCC(=O)N1CCN(c2nc(NCCC(=O)NCc3ccc(-n4c(O)nnc4-c4cc(C(C)C)c(O)cc4O)cc3C(F)(F)F)nc3c2CCN(c2cc(O)cc4ccccc24)C3)CC1",
    "testTarget": "NCI-H358 human non-small cell lung cancer",
    "val": "> 1000 nM"
  },
  {
    "structure": "C=CC(=O)N1CCN(c2nc(NCCC(=O)N3CCC(CN4CCN(Cc5ccc(-n6c(C(N)=O)nnc6-c6cc(CC)c(O)cc6O)cc5)CC4)CC3)nc3c2CCN(c2cccc4cccc(Cl)c24)C3)C[C@H]1CC#N",
    "testTarget": "NCI-H358 human non-small cell lung cancer",
    "val": "100 to 1000 nM"
  },
  {
    "structure": "CCC(=O)N1CCN(c2nc(NCCC(=O)N3CCC(Cc4ccc(-n5c(O)nnc5-c5cc(C(C)C)c(O)cc5O)cc4)CC3)nc3c2CCN(c2cc(O)cc4ccccc24)C3)CC1",
    "testTarget": "NCI-H358 human non-small cell lung cancer",
    "val": "> 1000 nM"
  },
  {
    "structure": "C=CC(=O)N1CCN(c2nc(OC[C@@H]3CCN(C(=O)c4cc(C(C)C)c(O)cc4OC)C3)nc3c2CCN(c2cccc4cccc(Cl)c24)C3)C[C@@H]1CC#N",
    "testTarget": "NCI-H358 human non-small cell lung cancer",
    "val": "> 1000 nM"
  },
  {
    "structure": "CCC(=O)N1CCN(c2nc(NCCC(=O)N3CCC(CN4CCN(Cc5ccc(-n6c(O)nnc6-c6ccc(O)cc6O)cc5)CC4)CC3)nc3c2CCN(c2cc(O)cc4ccccc24)C3)CC1",
    "testTarget": "NCI-H358 human non-small cell lung cancer",
    "val": "> 1000 nM"
  },
  {
    "structure": "C=CC(=O)N1CCN(c2nc(NCCC(=O)NCc3ccc(-n4c(O)nnc4-c4cc(CC)c(O)cc4O)cc3F)nc3c2CCN(c2cccc4cccc(Cl)c24)C3)C[C@H]1CC#N",
    "testTarget": "NCI-H358 human non-small cell lung cancer",
    "val": "> 1000 nM"
  },
  {
    "structure": "C=CC(=O)N1CCN(c2nc(NCCC(=O)N3CCC(CN4CCN(Cc5ccc(-n6c(C(=O)NCC(F)(F)F)nnc6-c6cc(CC)c(O)cc6O)cc5)CC4)CC3)nc3c2CCN(c2cccc4ccccc24)C3)C[C@H]1CC#N",
    "testTarget": "NCI-H358 human non-small cell lung cancer",
    "val": "100 to 1000 nM"
  },
  {
    "structure": "C=C(F)C(=O)N1CCN(c2nc(N3CCC(Cc4ccc(-n5c(C(=O)NCC(F)(F)F)nnc5-c5cc(C(C)C)c(O)cc5O)cc4)CC3)nc3c2CCN(c2cccc4cccc(Cl)c24)C3)C[C@@H]1CC#N",
    "testTarget": "NCI-H358 human non-small cell lung cancer",
    "val": "> 1000 nM"
  }
]

* * *

# testTarget: HSP90a protein (Homo sapiens)
# Construct: purchased BPS Bioscience 50298
# measurementDescription: HSP90α-binding fluorescent polarization (FP) assay, BODIPY-labeled RNK04010 probe
# conditionLabel: FP competition with RNK04010 (BODIPY-labeled), 5 nM, 300 min at 25° C.
# Procedure: HSP90α-Binding Fluorescent Polarization (FP) Assay Binding of test compounds to HSP90a protein was measured by fluorescent polarization (FP) using the HSP90a (N-terminal) Assay Kit (BPS Bioscience, #50298), following the manufacturer's instructions, except as noted. […]

[
  {
    "compound": "CC(=O)N1CCN(c2nc(NCCC(=O)N3CCN(Cc4ccc(CN(C)Cc5ccc(-n6c(C(=O)NCC(F)(F)F)nnc6-c6cc(C(C)C)c(O)cc6O)cc5)cc4)CC3)nc3c2CCN(c2cc(O)cc4ccccc24)C3)CC1 [Compound 115, trifluoroacetic acid]",
    "IC50": "100 to 1000 nM"
  },
  {
    "compound": "C=C(F)C(=O)N1CCN(c2nc(N3CCC(CN4CCN(Cc5ccc(-n6c(O)nnc6-c6cc(C(C)C)c(O)cc6O)cc5)CC4)CC3)nc3c2CCN(c2cccc4cccc(Cl)c24)C3)C[C@@H]1CC#N [Compound 129]",
    "IC50": "< 100 nM"
  },
  {
    "compound": "CCC(=O)N1CCN(c2nc(NCCC(=O)N3CCN(Cc4ccc(-n5c(O)nnc5-c5cc(C(C)C)c(O)cc5O)cc4)CC3)nc3c2CCN(c2cc(O)cc4ccccc24)C3)CC1 [Compound 35, trifluoroacetic acid]",
    "IC50": "100 to 1000 nM"
  },
  {
    "compound": "CCC(=O)N1CCN(c2nc(NCCC(=O)N3CCN(Cc4ccc5c(c4)CN(C(=O)c4cc(C(C)C)c(O)cc4O)C5)CC3)nc3c2CCN(c2cc(O)cc4ccccc24)C3)CC1 [Compound 57, trifluoroacetic acid]",
    "IC50": "100 to 1000 nM"
  },
  {
    "compound": "C=CC(=O)N1CCN(c2nc(NCCC(=O)NCc3ccc(-n4c(O)nnc4-c4ccc(O)cc4O)cc3)nc3c2CCN(c2cccc4ccccc24)C3)C[C@H]1CC#N [Compound 81]",
    "IC50": "> 1000 nM"
  },
  {
    "compound": "C=CC(=O)N1CCN(C2CN(c3cc(O)cc4ccccc34)Cc3nc(NCCC(=O)NCCOCCOCCOc4ccc(-n5c(O)nnc5-c5cc(C(C)C)c(O)cc5O)cc4)ncc32)CC1 (stereo not drawn) [Compound 9, trifluoroacetic acid]",
    "IC50": "100 to 1000 nM"
  },
  {
    "compound": "C=CC(=O)N1CCN(c2nc(OC[C@@H]3C[C@H](N4CCC(C(=O)N5CCN(Cc6ccc(-n7c(C(=O)NCCN8CCN(S(C)(=O)=O)CC8)nnc7-c7cc(C(C)C)c(O)cc7O)cc6)CC5)CC4)CN3C)nc3c2CCN(c2cccc4cccc(Cl)c24)C3)C[C@@H]1CC#N [Compound 327]",
    "IC50": "< 100 nM"
  },
  {
    "compound": "CCC(=O)N1CCN(c2nc(NCCC(=O)NCc3ccc(CN4CCC(Cc5ccc(-n6c(C(=O)NCC(F)(F)F)nnc6-c6cc(C(C)C)c(O)cc6O)cc5)CC4)cc3)nc3c2CCN(c2cc(O)cc4ccccc24)C3)CC1 [Compound 62, trifluoroacetic acid]",
    "IC50": "100 to 1000 nM"
  },
  {
    "compound": "C=CC(=O)N1CCN(c2nc(NCCC(=O)NCc3ccc(-n4c(O)nnc4-c4cc(CC)c(O)cc4O)cc3)nc3c2CCN(c2cc(O)cc4ccccc24)C3)CC1 [Compound 40, trifluoroacetic acid]",
    "IC50": "100 to 1000 nM"
  }
]

* * *

# System: NCI-H358 human non-small cell lung cancer
# measurementDescription: NCI-H358 CCK-8 proliferation assay
# Assay type: cell-based
# conditionLabel: NCI-H358 cells, 72 hr
Measured EC50 of individual entries

[
  {
    "compound": "CCC(=O)N1CCN(c2nc(NCCC(=O)N3CCC(CN4CCN(Cc5ccc(-n6c(C(=O)NC(C)C(F)(F)F)nnc6-c6cc(CC)c(O)cc6O)cc5)CC4)CC3)nc3c2CCN(c2cc(O)cc4ccccc24)C3)CC1 (centres unmarked) [Compound 119, trifluoroacetic acid]",
    "EC50": "100 to 1000 nM"
  },
  {
    "compound": "C=C(F)C(=O)N1CCN(c2nc(OC[C@@H]3CCCN3C(=O)C3CCN(Cc4ccc(-n5c(O)nnc5-c5cc(C(C)C)c(O)cc5O)cc4)CC3)nc3c2CCN(c2cccc4cccc(Cl)c24)C3)C[C@@H]1CC#N [Compound 144]",
    "EC50": "> 1000 nM"
  },
  {
    "compound": "CCC(=O)N1CCN(c2nc(N3CCC(CN4CCN(Cc5ccc(-n6c(O)nnc6-c6cc(CC)c(O)cc6O)cc5)CC4)CC3)nc3c2CCN(c2cccc4cccc(Cl)c24)C3)C[C@@H]1CC#N [Compound 133, trifluoroacetic acid]",
    "EC50": "100 to 1000 nM"
  },
  {
    "compound": "C=CC(=O)N1CCN(c2nc(NCCC(=O)N3CCC(CN4CCN(Cc5ccc(-n6c(O)nnc6-c6cc(C(C)C)c(O)cc6O)cc5)CC4)CC3)nc3c2CCN(c2cccc4cccc(Cl)c24)C3)C[C@H]1CC#N [Compound 87, trifluoroacetic acid]",
    "EC50": "100 to 1000 nM"
  },
  {
    "compound": "C=CC(=O)N1CCN(c2nc(NCCC(=O)NCc3ccc(-n4c(O)nnc4-c4cc(CC)c(O)cc4O)cc3C(F)(F)F)nc3c2CCN(c2cc(O)cc4ccccc24)C3)CC1 [Compound 39, trifluoroacetic acid]",
    "EC50": "> 1000 nM"
  },
  {
    "compound": "CCC(=O)N1CCN(c2nc(NCCC(=O)NCc3ccc(-n4c(O)nnc4-c4ccc(O)cc4O)cc3)nc3c2CCN(c2cc(O)cc4ccccc24)C3)CC1 [Compound 31, trifluoroacetic acid]",
    "EC50": "> 1000 nM"
  },
  {
    "compound": "CC(=O)N1CCN(c2nc(NCCC(=O)NCc3ccc(-n4c(O)nnc4-c4cc(C(C)C)c(O)cc4O)cc3C(F)(F)F)nc3c2CCN(c2cc(O)cc4ccccc24)C3)CC1 [Compound 42, trifluoroacetic acid]",
    "EC50": "> 1000 nM"
  },
  {
    "compound": "CCC(=O)N1CCN(c2nc(OC[C@@H]3CCN3C(=O)C3CCN(Cc4ccc(-n5c(O)nnc5-c5cc(C(C)C)c(O)cc5O)cc4)CC3)nc3c2CCN(c2cccc4cccc(Cl)c24)C3)C[C@@H]1CC#N [Compound 152, trifluoroacetic acid]",
    "EC50": "> 1000 nM"
  },
  {
    "compound": "CCC(=O)N1CCN(c2nc(NCCC(=O)NCc3ccc(CN4CCC(Cc5ccc(-n6c(C(=O)NCC(F)(F)F)nnc6-c6cc(C(C)C)c(O)cc6O)cc5)CC4)cc3)nc3c2CCN(c2cc(O)cc4ccccc24)C3)CC1 [Compound 62, trifluoroacetic acid]",
    "EC50": "100 to 1000 nM"
  },
  {
    "compound": "C=CC(=O)N1CCN(c2nc(NCCC(=O)N3CCC(Cc4ccc(-n5c(O)nnc5-c5cc(C(C)C)c(O)cc5O)cc4)CC3)nc3c2CCN(c2cccc4ccccc24)C3)C[C@H]1CC#N [Compound 84, trifluoroacetic acid]",
    "EC50": "100 to 1000 nM"
  },
  {
    "compound": "CCC(=O)N1CCN(c2nc(NCCC(=O)NCc3ccc(-n4c(O)nnc4-c4cc(C(C)C)c(O)cc4O)cc3)nc3c2CCN(c2cc(O)cc4ccccc24)C3)CC1 [Compound 50, trifluoroacetic acid]",
    "EC50": "> 1000 nM"
  },
  {
    "compound": "C=CC(=O)N1CCN(c2nc(NCCC(=O)NCc3ccc(-n4c(O)nnc4-c4cc(C(C)C)c(O)cc4O)cc3F)nc3c2CCN(c2cc(O)cc4ccccc24)C3)CC1 [Compound 47]",
    "EC50": "> 1000 nM"
  },
  {
    "compound": "C=CC(=O)N1CCN(c2nc(NCCC(=O)N3CCN(Cc4ccc(-n5c(O)nnc5-c5cc(C(C)C)c(O)cc5O)cc4)CC3)nc3c2CCN(c2cccc4cccc(Cl)c24)C3)C[C@H]1CC#N [Compound 100, trifluoroacetic acid]",
    "EC50": "> 1000 nM"
  },
  {
    "compound": "CCc1cc(C(=O)N2Cc3ccc(CN4CCN(C(=O)CCNc5nc6c(c(N7CCN(C(C)=O)CC7)n5)CCN(c5cc(O)cc7ccccc57)C6)CC4)cc3C2)c(O)cc1O [Compound 67, trifluoroacetic acid]",
    "EC50": "> 1000 nM"
  },
  {
    "compound": "CC(=O)N1CCN(c2nc(NCCC(=O)N3CCC(Cc4ccc(CN(C)Cc5ccc(-n6c(C(=O)NCC(F)(F)F)nnc6-c6cc(C)c(O)cc6O)cc5)cc4)CC3)nc3c2CCN(c2cccc4ccccc24)C3)C[C@H]1CC#N [Compound 122, trifluoroacetic acid]",
    "EC50": "> 1000 nM"
  },
  {
    "compound": "C=CC(=O)N1CCN(c2nc(NCCC(=O)N3CCC(Cc4ccc(CN(C)Cc5ccc(-n6c(C(=O)NCC(F)(F)F)nnc6-c6cc(C(C)C)c(O)cc6O)cc5)cc4)CC3)nc3c2CCN(c2cc(O)cc4ccccc24)C3)CC1 [Compound 16, trifluoroacetic acid]",
    "EC50": "100 to 1000 nM"
  },
  {
    "compound": "CCC(=O)N1CCN(c2nc(NCCC(=O)N3CCC(Cc4ccc(CN(C)Cc5ccc(-n6c(O)nnc6-c6cc(C(C)C)c(O)cc6O)cc5)cc4)CC3)nc3c2CCN(c2cc(O)cc4ccccc24)C3)CC1 [Compound 63, trifluoroacetic acid]",
    "EC50": "100 to 1000 nM"
  }
]
